Quick reference: viability, T/C of the listed items.
System: 616215-338-R-J1-PDC complex spheroid growth, % test/control
PROTOCOL_TEXT: Anticancer human tumor 616215-338-R-J1-PDC patient-derived colon adenocarcinoma cell line growth inhibition [Asc]
TEST_CONDITIONS: second compound 0.316 µM; first compound 0.3 µM; stronger effect = lower value
PROPERTY: viability, T/C (%)

COMPOUND	STUDY_TARGET	PROPERTY	OBSERVED_VALUE
NC(=O)C(=Cn1cnc(-c2cc(C(F)(F)F)cc(C(F)(F)F)c2)n1)c1cncnc1 + CNC(C)C(=O)NC1CN(S(=O)(=O)c2cccc(S(=O)(=O)N3CCC4CCC(C(=O)NC(c5ccccc5)c5ccccc5)N4C(=O)C(NC(=O)C(C)NC)C3)c2)CCC2CCC(C(=O)NC(c3ccccc3)c3ccccc3)N2C1=O	616215-338-R-J1-PDC complex spheroid growth, % test/control	viability, T/C	67
CCN1C(C(=O)NC23CCC(C(=O)O)(CC2)CC3)C(c2cccc(Cl)c2F)C2(C(=O)Nc3cc(Cl)ccc32)C12CCCCC2 (stereo not drawn) + Cc1c(S(C)(=O)=O)c(-c2cc(F)cc(N3CCN(c4ccc(NS(=O)(=O)c5ccc(NC(CCN6CCC(C(=O)OCCCP(=O)(O)O)CC6)CSc6ccccc6)c(S(=O)(=O)C(F)(F)F)c5)cc4)CC3)c2)c(-c2ccc(Cl)cc2)n1C(C)C	616215-338-R-J1-PDC complex spheroid growth, % test/control	viability, T/C	34.3
Cc1nc(N2CCC3(CC2)COC(C)C3N)c(CO)nc1Sc1ccnc(N)c1Cl (stereo not drawn) + CNC(C)C(=O)NC1CN(S(=O)(=O)c2cccc(S(=O)(=O)N3CCC4CCC(C(=O)NC(c5ccccc5)c5ccccc5)N4C(=O)C(NC(=O)C(C)NC)C3)c2)CCC2CCC(C(=O)NC(c3ccccc3)c3ccccc3)N2C1=O	616215-338-R-J1-PDC complex spheroid growth, % test/control	viability, T/C	68.3

* * *

Test system: 616215-338-R-J1-PDC complex spheroid growth, % test/control
PROTOCOL_TEXT: Anticancer human tumor 616215-338-R-J1-PDC cell line growth inhibition [Asc]; active means viability on the fitted dose curve at most 10% of control; inactive means the rest;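 further: spheroids exposed to agents for seven days before readout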
TEST_CONDITIONS: second compound 0.1 µM; first compound 10 µM
Labels: active, inactive

COMPOUND	GROUP
C=C(F)C(=O)N1CCN(c2nc(OCC3CCCN3C)nc3c2CCN(c2cccc4cccc(Cl)c24)C3)CC1CC#N (configuration not stated) + Cc1c(S(C)(=O)=O)c(-c2cc(F)cc(N3CCN(c4ccc(NS(=O)(=O)c5ccc(NC(CCN6CCC(C(=O)OCCCP(=O)(O)O)CC6)CSc6ccccc6)c(S(=O)(=O)C(F)(F)F)c5)cc4)CC3)c2)c(-c2ccc(Cl)cc2)n1C(C)C	active
C=CC(=O)N1CCN(c2nc(=O)n(-c3c(C)ccnc3C(C)C)c3nc(-c4c(O)cccc4F)c(F)cc23)C(C)C1 (configuration not stated) + CNC(C)C(=O)NC1CN(S(=O)(=O)c2cccc(S(=O)(=O)N3CCC4CCC(C(=O)NC(c5ccccc5)c5ccccc5)N4C(=O)C(NC(=O)C(C)NC)C3)c2)CCC2CCC(C(=O)NC(c3ccccc3)c3ccccc3)N2C1=O	inactive

* * *

Quick reference: IC50 of the listed items.
Test system: 616215-338-R-J1-PDC complex spheroid growth, % test/control
PROTOCOL_TEXT: Anticancer human tumor 616215-338-R-J1-PDC cell line growth inhibition [Asc];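 further: spheroids exposed to agents for seven days before readout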
TEST_CONDITIONS: curve of first compound; second compound 1 µM
PROPERTY: IC50

COMPOUND	PROPERTY	OBSERVED_VALUE
CNC(C)C(=O)NC1CN(S(=O)(=O)c2cccc(S(=O)(=O)N3CCC4CCC(C(=O)NC(c5ccccc5)c5ccccc5)N4C(=O)C(NC(=O)C(C)NC)C3)c2)CCC2CCC(C(=O)NC(c3ccccc3)c3ccccc3)N2C1=O (stereo not drawn) + Cc1c(S(C)(=O)=O)c(-c2cc(F)cc(N3CCN(c4ccc(NS(=O)(=O)c5ccc(NC(CCN6CCC(C(=O)OCCCP(=O)(O)O)CC6)CSc6ccccc6)c(S(=O)(=O)C(F)(F)F)c5)cc4)CC3)c2)c(-c2ccc(Cl)cc2)n1C(C)C	IC50	> 1000 nM
CCN1CCN(Cc2ccc(Nc3ncc(F)c(-c4cc(F)c5nc(C)n(C(C)C)c5c4)n3)nc2)CC1 + Cc1c(S(C)(=O)=O)c(-c2cc(F)cc(N3CCN(c4ccc(NS(=O)(=O)c5ccc(NC(CCN6CCC(C(=O)OCCCP(=O)(O)O)CC6)CSc6ccccc6)c(S(=O)(=O)C(F)(F)F)c5)cc4)CC3)c2)c(-c2ccc(Cl)cc2)n1C(C)C	IC50	> 1000 nM
NC1CCC(NC2CC2c2ccccc2)CC1 (stereo not drawn) + CNC(C)C(=O)NC1CN(S(=O)(=O)c2cccc(S(=O)(=O)N3CCC4CCC(C(=O)NC(c5ccccc5)c5ccccc5)N4C(=O)C(NC(=O)C(C)NC)C3)c2)CCC2CCC(C(=O)NC(c3ccccc3)c3ccccc3)N2C1=O	IC50	> 100 nM

Reference source: PubChem BioAssay AID1963448
